Cited source for all entries: ChEMBL document CHEMBL4261494

# procedure.details: Aqueous solubility of the compound in pH 7.4 phosphate buffer at 1 mg after 3 hrs by UV absorption analysis
# Type: physicochemical

# molecule, units.symbol, solubility at 3 h
data = [
    ("COc1cc(/C=N/n2cnnc2)c2c(c1OCc1ccc(F)cc1)CN1CCc3cc4c(cc3C1C2)OCO4 (centres undefined)", "µg/mL", 185),
    ("CCCCCCOc1c(OC)cc(/C=N/n2cnnc2)c2c1CN1CCc3cc4c(cc3C1C2)OCO4 (centres undefined)", "µg/mL", 442),
    ("COc1cc(/C=N/n2cnnc2)c2c(c1OCc1ccc(Cl)cc1)CN1CCc3cc4c(cc3C1C2)OCO4 (centres undefined)", "µg/mL", 613),
    ("CCCCCCCCCCCCOc1c(OC)cc(/C=N/n2cnnc2)c2c1CN1CCc3cc4c(cc3C1C2)OCO4 (centres undefined)", "µg/mL", 97),
]
